# test target: Human GPR120 short form (Homo sapiens)
# Construct: expressed in transfected cells
# assay notes: Human GPR120 calcium flux assay, Procedure Calcium A (2500 cells/well)
# Assay type: cell-based
pEC50: −log10 of the molar value.
Tick 1.0 if pEC50 is 6 or greater. Tick 0.0 if pEC50 is less than 6.

Cc1ccc(C2=C(COc3ccc(CCC(=O)O)c(C)c3C)CCC2)cc1C | 1.0
Cc1ccc(C2=C(COc3ccc(CCC(=O)O)c(F)c3F)CCC2)cc1 | 1.0
CC(=O)Nc1ccc(C2=C(COc3ccc(CCC(=O)O)c(C)c3C)CCCC2)cc1 | 0.0
Cc1c(CCC(=O)O)ccc(OCC2=C(c3cncs3)CCC2)c1C | 1.0
O=C(O)CCc1ccc(OCC2=C(c3ccc(Cl)cc3)CCC2)c(F)c1F | 1.0
O=C(O)CCc1ccc(OCC2=C(c3ccc(Cl)cc3)CCCC2)cc1 | 0.0
CC(=O)Nc1ccc(C2=C(COc3ccc(CCC(=O)O)c(C)c3C)CCC2)cc1 | 0.0
CCc1ccc(C2=C(COc3ccc(CCC(=O)O)c(F)c3F)CCC2)cc1 | 1.0
Cc1c(CCC(=O)O)ccc(OCC2=C(c3ccc(Cl)cc3)CCC2)c1C | 1.0
Cc1c(CCC(=O)O)ccc(OCC2=C(c3ccccc3F)CCC2)c1C | 1.0
O=C(O)CCc1ccc(OCC2=C(c3ccc(Cl)cc3)CCC2)cc1 | 1.0
Cc1cc(OCC2=C(c3ccc(Cl)cc3)CCCC2)ccc1CCC(=O)O | 0.0
Cc1ccc(C2=C(COc3c(F)cc(CCC(=O)O)cc3F)CCC2)cc1C | 0.0
Cc1c(CCC(=O)O)ccc(OCC2=C(c3cccc(N(C)C)c3)CCC2)c1C | 0.0
Cc1ccc(C2=C(COc3ccc(CCC(=O)O)c(C)c3C)CCC2)cn1 | 1.0
CSc1ccc(C2=C(COc3ccc(CCC(=O)O)c(C)c3C)CCC2)cc1 | 1.0
Cc1ccc(C2=C(COc3ccc(CCC(=O)O)c(F)c3F)CCC2)cc1N | 1.0
O=C(O)CCc1ccc(OCC2=C(c3ccc(Cl)cc3)CCCC2)c(F)c1 | 1.0
Cc1cc(CCC(=O)O)ccc1OCC1=C(c2ccc(Cl)cc2)CCC1 | 1.0
Cc1c(CCC(=O)O)ccc(OCC2=C(c3ccccc3)CCCC2)c1C | 1.0
Cc1c(CCC(=O)O)ccc(OCC2=C(c3ccc(OC(F)(F)F)cc3)CCC2)c1C | 0.0
Cc1c(CCC(=O)O)ccc(OCC2=C(c3ccc(Cl)cc3)CCC2(O)C(F)(F)F)c1C (centres unmarked) | 0.0
Cc1c(CCC(=O)O)ccc(OCC2=C(c3ccsc3)CCC2)c1C | 0.0
Cc1ccc(C2=C(COc3ccc(CCC(=O)O)c(F)c3F)CCCC2)cc1F | 1.0
Cc1c(CCC(=O)O)ccc(OCC2=C(c3ccc(S(C)(=O)=O)cc3)CCCC2)c1C | 0.0
Cc1c(CCC(=O)O)ccc(OCC2=C(c3ncccn3)CCCC2)c1C | 0.0
Cc1c(CCC(=O)O)ccc(OCC2=C(c3ccccn3)CCCC2)c1C | 0.0

* * *

# test target: Human GPR120 short form (Homo sapiens, UniProt Q5NUL3)
# Construct: expressed in transfected cells
# assay notes: Human GPR120 calcium flux assay, Procedure Calcium B (4200 cells/well)
# Assay type: cell-based
# Procedure: Human GPR120 in Calcium Flux Assay These cells are first loaded with the Ca^+2 sensitive dye, Fluo-4 NW. Upon stimulation, intracellular released Ca^+2 can bind to the dye and alter its fluorescence intensity. This increase in fluorescence signal, and thus the flux in intracellular [Ca^2+], is detected and quantitated by fluorescence imaging using a FLIPR reader. The effect of the agonist is measured as a function of concentration and used to calculate an EC50 based upon a response curve. […]
pEC50: −log10 of the molar value.
measurement label: pEC50

Cc1cc(OCC2=C(c3ccc(Cl)cc3)C(C)CC2)c(F)cc1CCC(=O)O (stereo not drawn) [Compound 317] | 6.06
CSc1ccc(C2=C(COc3ccc(CCC(=O)O)c(C)c3C)CCCC2)cc1 [Compound 492] | 6.73
Cc1c(CCC(=O)O)ccc(OCC2=C(c3ccc(F)cc3)CC(F)(F)C2)c1C [Compound 10] | 7.62
Cc1ccc(C2=C(COc3ccc(CCC(=O)O)c(C(F)(F)F)c3)CCC2)c(C)c1 [Compound 247] | 5.51
Cc1cc(OCC2=C(C3CCCC3)CCC2)c(F)cc1CCC(=O)O [Compound 424] | 6.61
C=Cc1cc(OCC2=C(C3CCCC3)CCC2)ccc1CCC(=O)O [Compound 442] | 6.48
O=C(O)CCc1ccc(OCC2=C(C3CCC3)CC(F)(F)C2)cc1Cl [Compound 430] | 6.47
Cc1c(CCC(=O)O)ccc(OCC2=C(c3ccccc3F)CCC2)c1C [Compound 124] | 7.17
O=C(O)CCc1ccc(OCC2=C(c3ccccc3)CCC2)cc1Cl [Compound 259] | 5.91
O=C(O)CCc1ccc(OCC2=C(C3CCCC3)CCC(F)(F)CC2)cc1C(F)(F)F [Compound 617] | 6.67
Cc1ccc(C2=C(COc3ccc(CCC(=O)O)c(F)c3F)CCC2)c(C)c1 [Compound 72] | 6.61
Cc1c(CCC(=O)O)cc(Br)c(OCC2=C(c3ccc(Cl)cc3)CCC2)c1Br [Compound 68] | 6.29
Cc1cc(CCC(=O)O)ccc1OCC1=C(c2ccc(Cl)cc2)CCC1 [Compound 62] | 7.57
Cc1ccc(CC2=C(COc3ccc(CCC(=O)O)cc3)CCC2)cc1 [Compound 346] | 5.89
Cc1c(CCC(=O)O)ccc(OCC2=C(c3ccccc3)CCC(F)(F)C2)c1C [Compound 537] | 7.08
O=C(O)CCc1ccc(OCC2=C(c3ccc(C(F)(F)F)cc3)CCC2)cc1Cl [Compound 272] | 5.65
Cc1cc(CCC(=O)O)ccc1OCC1=C(c2ccc(Cl)cc2)CCC(F)(F)C1 [Compound 467] | 7.40

* * *

This section presents molecules with their documented EC50 values.
# test target: UniProt O14842
# Sequence (O14842 whole entry): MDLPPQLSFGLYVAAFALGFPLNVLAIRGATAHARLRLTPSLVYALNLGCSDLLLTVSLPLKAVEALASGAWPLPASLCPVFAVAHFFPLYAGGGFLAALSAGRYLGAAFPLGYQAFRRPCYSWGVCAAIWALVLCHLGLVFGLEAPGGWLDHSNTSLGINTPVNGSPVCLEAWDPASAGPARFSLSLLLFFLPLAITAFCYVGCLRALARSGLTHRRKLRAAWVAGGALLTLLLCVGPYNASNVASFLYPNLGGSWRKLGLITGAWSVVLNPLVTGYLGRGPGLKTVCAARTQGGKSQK
# assay notes: GPR40 calcium flux assay, human GPR40
# experimental parameters: HEK293 cells stably expressing GPR40; table does not say human or rat
measurement label: EC50 (nM)

O=C(O)CCc1ccc(OCC2=C(c3ccc(F)cc3)CCC2)cc1C(F)(F)F | 187
[2H]C([2H])([2H])c1ccc(C2=C(COc3ccc(CCC(=O)O)c(C(F)(F)F)c3)CCC2)cc1 | 992
O=C(O)CCc1ccc(OCC2=C(C3CCCC3)CCCCC2)cc1F | 225

* * *

This section presents compounds with their documented pEC50 values.
# test target: Human GPR120 short form (Homo sapiens)
# Construct: expressed in transfected cells
# Sequence (Q5NUL3 1-361): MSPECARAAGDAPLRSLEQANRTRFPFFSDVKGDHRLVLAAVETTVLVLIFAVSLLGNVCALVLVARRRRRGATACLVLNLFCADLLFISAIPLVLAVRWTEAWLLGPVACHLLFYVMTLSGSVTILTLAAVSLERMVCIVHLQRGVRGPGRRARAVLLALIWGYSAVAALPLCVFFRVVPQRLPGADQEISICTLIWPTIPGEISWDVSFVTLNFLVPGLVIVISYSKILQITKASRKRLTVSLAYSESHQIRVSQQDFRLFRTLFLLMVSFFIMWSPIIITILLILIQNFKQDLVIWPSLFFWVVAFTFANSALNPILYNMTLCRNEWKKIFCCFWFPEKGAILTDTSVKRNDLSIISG
# assay notes: Human GPR120 calcium flux assay, Procedure Calcium B (4200 cells/well)
# Assay type: cell-based
pEC50: −log10 of the molar value.
measurement label: pEC50

Cc1cc(CCC(=O)O)ccc1OCC1=C(c2ccc(C#N)s2)CCC(F)(F)C1 | 6.35
Cc1c(CCC(=O)O)ccc(OCC2=C(c3ccc(N(C)C)cc3)CCCC2)c1C | 6.85
CC1CCC(COc2ccc(CCC(=O)O)c(C(F)(F)F)c2)=C1c1ccccc1 (centres unmarked) | 5.95
O=C(O)CCc1ccc(OCC2=C(Cc3ccc(Cl)cc3)CCC2)cc1C(F)(F)F | 5.51
Cc1cc(CCC(=O)O)ccc1OCC1=C(c2ccco2)CCC(F)(F)C1 | 6.79
Cc1c(CCC(=O)O)ccc(OCC2=C(c3ccc(Cl)c(F)c3)CCC(F)(F)C2)c1C | 6.06
O=C(O)CCc1ccc(OCC2=C(Cc3cccc(F)c3)CCC2)cc1C(F)(F)F | 5.48

* * *

# test target: Human GPR120 short form (Homo sapiens)
# Construct: expressed in transfected cells
# assay notes: Human GPR120 calcium flux assay, Procedure Calcium A (2500 cells/well)
# Type: cell-based
# Excerpt: Human GPR120 in Calcium Flux Assay This in vitro assay serves to assess test compound agonist activity against the short splice variant (SVS with Accession number NM_001195755.1 confirmed by sequencing data) of the GPR120 receptor. […] Upon stimulation, intracellular released Ca^+2 can bind to the dye and alter its fluorescence intensity. This increase in fluorescence signal, and thus the flux in intracellular [Ca^2+], is detected and quantitated by fluorescence imaging using a FLIPR reader. […]
pEC50: −log10 of the molar value.
measurement label: pEC50

Cc1c(CCC(=O)O)ccc(OCC2=C(c3ccc(Br)cc3)CCCC2)c1C | 6.60
Cc1ccc(C2=C(COc3ccc(CCC(=O)O)c(F)c3F)CCC2)cc1C | 6.23
O=C(O)CCc1ccc(OCC2=C(c3ccc(Cl)cc3)CCC2)c(F)c1 | 6.89
Cc1c(CCC(=O)O)ccc(OCC2=C(c3cc(Cl)cc(Cl)c3)CCC2)c1C | 5.61
Cc1c(CCC(=O)O)ccc(OCC2=C(c3ccccc3Cl)CCC2)c1C | 6.27
Cc1cc(OCC2=C(c3ccc(Cl)cc3)CCC2)ccc1CCC(=O)O | 6.27
Cc1c(CCC(=O)O)ccc(OCC2=C(c3ccc(C#N)cc3)CCC2)c1C | 5.81
O=C(O)CCc1ccc(OCC2=C(c3ccc(Cl)cc3)CCC(F)(F)C2)c(F)c1F | 6.31

Recorded values, source patent US11230526B1.
